target: human cGAS (residues 161-522) (Homo sapiens, UniProt Q8N884); construct: human cGAS (residues 161-522); assay: cGAS Activity Assay—Malachite Green; conditions: recombinant purified human cGAS 25 nM; 80 μM ATP, 80 μM GTP, 100 nM ISD; 4 hour at RT; phosphate detection by Malachite Green
Sequence (Q8N884 161-522): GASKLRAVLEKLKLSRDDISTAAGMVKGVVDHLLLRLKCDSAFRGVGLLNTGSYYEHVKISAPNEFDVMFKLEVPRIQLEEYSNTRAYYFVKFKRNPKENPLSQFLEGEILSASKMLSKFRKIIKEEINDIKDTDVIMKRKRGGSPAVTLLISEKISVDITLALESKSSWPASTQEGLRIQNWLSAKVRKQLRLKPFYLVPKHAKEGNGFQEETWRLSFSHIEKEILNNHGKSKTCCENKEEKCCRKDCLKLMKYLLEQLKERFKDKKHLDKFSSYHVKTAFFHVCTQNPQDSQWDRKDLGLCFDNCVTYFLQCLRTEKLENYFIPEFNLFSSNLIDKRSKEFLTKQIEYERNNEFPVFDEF
READOUT: IC50 (nM)

Sample records with IC50:
IC50 for Cc1oncc1/C(O)=C(\C#N)C(=O)Nc1ncc(C(F)(F)F)cc1Cl is 280

IC50 for Cc1oncc1/C(O)=C(\C#N)C(=O)Nc1ccc(Sc2ccccc2)cc1 is 2020

(I) Cc1oncc1/C(O)=C(\C#N)C(=O)Nc1cccc(C(F)(F)F)c1
(II) Cc1oncc1/C(O)=C(\C#N)C(=O)Nc1ncc(S(C)(=O)=O)c(-c2ccccc2Cl)n1
Input: // compare: I vs II , metric IC50, want the smaller Refer to your chosen item by its label in the answer.
Output: II

----------
target: human cGAS (residues 161-522) (Homo sapiens, UniProt Q8N884); construct: human cGAS (residues 161-522); assay: cGAS Activity Assay—Malachite Green; details: recombinant purified human cGAS 25 nM; 80 μM ATP, 80 μM GTP, 100 nM ISD; 4 hour at RT; phosphate detection by Malachite Green
pIC50: −log10 of the molar value.
READOUT: pIC50

Sample records with pIC50:
pIC50 for COc1cnc(NC(=O)/C(C#N)=C(\O)c2cnoc2C)nc1-c1ccccc1 is 6.77

pIC50 for Cc1oncc1/C(O)=C(\C#N)C(=O)Nc1ncc(CCc2ccccc2)cn1 is 6.82

pIC50 for CNC(=O)c1ccc(NC(=O)/C(C#N)=C(\O)c2cnoc2C)cc1 is 6.43

pIC50 for Cc1oncc1/C(O)=C(\C#N)C(=O)Nc1ncc(C(F)(F)F)cn1 is 7.05

(A) COC(=O)Cc1ccc(NC(=O)/C(C#N)=C(\O)c2cnoc2C)cc1
(B) Cc1oncc1/C(O)=C(\C#N)C(=O)Nc1ncc(S(C)(=O)=O)c(-c2cccc(Cl)c2)n1
(C) Cc1oncc1/C(O)=C(\C#N)C(=O)Nc1ncc(Oc2ccccc2)cn1
(D) Cc1oncc1/C(O)=C(\C#N)C(=O)Nc1ccc([S+]([O-])c2ccccc2)cn1 (stereo not drawn)
Input: Arrange these 4 compounds in increasing order of pIC50. As an answer, provide the labels arranged in the order called for.
Output: A, C, D, B
(A: 6.28, C: 6.52, D: 6.89, B: 7.15)

----------
target: human cGAS (residues 161-522) (Homo sapiens, UniProt Q8N884); construct: human cGAS (residues 161-522); assay: cGAS Activity Assay—Malachite Green; conditions: recombinant purified human cGAS 25 nM; 80 μM ATP, 80 μM GTP, 100 nM ISD; 4 hour at RT; phosphate detection by Malachite Green
READOUT: IC50 (µM)

(A) CC(=O)Nc1ccc(NC(=O)/C(C#N)=C(\O)c2cnoc2C)cc1 [Example 42]
(B) Cc1oncc1/C(O)=C(\C#N)C(=O)Nc1ncc(OC2CCCCC2)cn1 [Example 73]
Input: Could you please tell me which of these two has the higher IC50: A or B ? Refer to your chosen item by its label in the answer.
Output: A
(A: 0.27 µM, B: 0.14 µM)

(P) Cc1oncc1/C(O)=C(\C#N)C(=O)Nc1ccc(C(=O)c2ccccc2)cc1 [Example 38]
(Q) Cc1oncc1/C(O)=C(\C#N)C(=O)Nc1cc(C(F)(F)F)cc(C(F)(F)F)c1 [Example 6]
Input: Could you please tell me which of these two has the higher IC50: P or Q ? Refer to your chosen item by its label in the answer.
Output: Q
(Q: 6.98 µM, P: 1.16 µM)
